Each recorded value in this set is attributed to ChEMBL document CHEMBL1155357.

Record form. Attribute: MIC. Fill in for each entry.
Tested on: Cryptococcus neoformans
Assay: Antimicrobial activity against Cryptococcus neoformans ATCC 90112 after 24 hrs
Format: functional
Details: ATCC 90112, 24 h
Just the number in µg/mL, nothing appended.

Task item: Consider the compound COc1ccc(-c2c[nH]c3ccccc23)cc1 and give its measured MIC.
Reply: 78

Task item: Moving on to the next compound: COc1cc(-c2c[nH]c3ccccc23)cc(OC)c1OC
Reply: 29.3

Task item: Then what about the compound c1ccc(-c2c[nH]c3ccccc23)cc1 [3-PHENYLINDOLE] ?
Reply: 65.1

Task item: Param item: COc1cc(-c2c[nH]c3ccccc23)c(OC)cc1Br
Reply: 261

Task item: Try the compound COc1ccc2[nH]cc(-c3ccccc3)c2c1
Reply: 235

Task item: How about COc1cc(-c2cc3ccccc3[nH]2)cc(OC)c1OC ?
Reply: 313

Task item: Entry c1ccc(-c2cc3ccccc3[nH]2)cc1 [2-PHENYL-1H-INDOLE] please
Reply: 625

Task item: Check COc1ccc(-c2cc3ccccc3[nH]2)cc1 too.
Reply: 58.5

Task item: Same for COc1ccc2[nH]cc(-c3ccccc3C=O)c2c1
Reply: 313

Task item: COc1ccc2[nH]cc(-c3ccccc3C)c2c1 ?
Reply: 625

Task item: Likewise for COc1ccc(-c2c[nH]c3ccc(OC)cc23)cc1 ?
Reply: 29.3

Task item: Now try COc1ccc2[nH]c(-c3cc(OC)c(OC)c(OC)c3)cc2c1 .
Reply: 32.5

Task item: What do we get for COc1ccc2[nH]cc(-c3ccccc3C(C)=O)c2c1 ?
Reply: 39

Task item: How about this compound: COc1ccc2[nH]cc(-c3cc(OC)c(OC)c(OC)c3)c2c1
Reply: 29.3

Task item: # iterate: c1ccc2[nH]c(-c3cccc4ccccc34)cc2c1
Reply: 625
